- Test system: LNCaP cells
- measurement_protocol: LNCaP cell viability assay (MTS)
- Assay type: cell-based
- measurement_parameters: Homo sapiens, LNCaP, 48 h, LNCaP cell line
Could you mark each record 1 if its GI50 falls strictly under 30 µM, and 0 if it equals or exceeds it?

For orientation, consider the following solved cases.
compound: CN(C)CC(NS(=O)(=O)c1ccc(-c2ccccn2)cc1)c1ccc(Cl)c(Cl)c1 (centres unmarked)
group_label: 0
//
compound: COc1ccc(C)cc1CC(NS(=O)(=O)c1ccc(OC(F)(F)F)cc1)C(C)C (centres unmarked)
group_label: 0
//
compound: O=S(=O)(NCC1(c2cc(C(F)(F)F)ccc2Cl)CC1)c1ccc(OC(F)(F)F)cc1
group_label: 1

Qu. Consider CN(C)CC(NS(=O)(=O)c1cccc(-c2ccccc2)c1)c1ccc(Cl)c(Cl)c1 (centres unmarked) [Compound 144] . Does its GI50 lie strictly below 30 µM?
Ans. 1

Qu. Input CN(C)CC(NS(=O)(=O)c1ccc2ccccc2c1)c1ccc(Cl)c(Cl)c1 (centres unmarked) ; condition: GI50 strictly below 30 µM. Does it hold?
Ans. 1

Qu. In the record for O=S(=O)(NC(c1cc(Cl)cc(Cl)c1)C1CCCCC1)c1ccc(OC(F)(F)F)cc1 (single isomer, unassigned) [Compound 140] , is GI50 less than 30 µM?
Ans. 1

Qu. For "O=S(=O)(NCc1ccccc1N1CCCC1)c1ccc(OC(F)(F)F)cc1" , is the recorded GI50 below the cut-off of 30 µM?
Ans. 0

Qu. hey, is GI50 for Cc1ccccc1S(=O)(=O)NC(CN(C)C)c1ccc(Cl)c(Cl)c1 (centres unmarked) lower than 30 µM or not?
Ans. 0

Qu. Record "COCCC1(CNS(=O)(=O)c2ccc(OC(F)(F)F)cc2)CCCCC1" : is its GI50 strictly below 30 µM?
Ans. 0

Qu. Here's an entry: "O=S(=O)(NCC1(c2cccs2)CCCC1)c1ccc(OC(F)(F)F)cc1" . Is its GI50 below 30 µM?
Ans. 0

Qu. Item O=S(=O)(NC(CN1CCNCC1)c1ccc(Cl)c(F)c1)c1ccc(OC(F)(F)F)cc1 (centres unmarked) : GI50 beneath 30 µM, strictly?
Ans. 1

Qu. Is GI50 of O=S(=O)(NC(c1ccc(F)c(C(F)(F)F)c1)C1CC1)c1ccc(OC(F)(F)F)cc1 (centres unmarked) strictly below 30 µM?
Ans. 0

Qu. Does the reported GI50 of CC(C)(C)OC(=O)N1CC(CNS(=O)(=O)c2ccc(OC(F)(F)F)cc2)OC(C)(C)C1 (centres unmarked) stay below 30 µM?
Ans. 1

Qu. Consider O=S(=O)(NC(CN1CCNCC1)c1ccc(F)cc1)c1ccc(OC(F)(F)F)cc1 (centres unmarked) . Does its GI50 lie strictly below 30 µM?
Ans. 0

Qu. Say whether its GI50 is strictly beneath 30 µM. Entry: O=S(=O)(NC(CN1CC2CC1CN2)c1ccc(Cl)c(Cl)c1)c1ccc(OC(F)(F)F)cc1 (single isomer, unassigned) [Compound 261a]
Ans. 1
